EXPERIMENT_SUMMARY: human hepatoma cell viability loss – ATP luminescence, cytotoxicity control for P. falciparum antimalarial project, primary screen (AID 2303);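 further: 0% = DMSO wells and 100% = digitonin-killed cells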
ASSAY_SETUP: HepG2 viability, 24-48 h, at 10 µM
The source made the active and inactive calls.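 How the source made its calls: active means inhibition above 50%; inactive means the rest.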
// allowed return values: YES for active, NO for inactive

>>> class("c1ccc(Oc2ccc(Nc3ccnc4ccc(-c5ccccn5)cc34)cc2)cc1")
"NO"
>>> class("COc1c(C2CCN(CCCCNC(=O)c3ccc(-c4ccc(C#N)cc4)nc3)CC2)ccc2c1CCCC2")
"YES"
>>> class("COc1ccc(-c2nc3c4cc(I)ccc4c4ccccc4c3[nH]2)cc1")
"NO"
>>> class("O=C1C(=Cc2cc(Cc3ccccc3)ccc2O)SC(=S)N1Cc1ccccc1")
"NO"
>>> class("Cn1cncc1C(=O)Nc1cccc(-c2csc(-c3nc4ccccc4[nH]3)c2)c1")
"NO"

Moving on to the next molecule.
How did this test come out for CSc1c(CNCCCNc2cc(=O)c3ccccc3[nH]2)[nH]c2ccccc12 ? NO

====

EXPERIMENT_SUMMARY: human hepatoma cell viability loss – ATP luminescence, cytotoxicity control for P. falciparum antimalarial project, primary screen (AID 2303);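 further: 0% = DMSO wells and 100% = digitonin-killed cells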
ASSAY_SETUP: HepG2 viability, 24-48 h, at 10 µM, hits give high values
PROPERTY_NAME: inhibition (%)
Report the figure in % without appending any unit label.

response.value for COc1ccc(-c2ccc(NC(=O)c3cccc(C#N)c3)cc2)cc1CN(C)C (field: inhibition) = 11

response.value for CC1CCN(CCCNc2ccc(C(=O)Nc3ccc(C(F)(F)F)cc3)cc2[N+](=O)[O-])CC1 (field: inhibition) = 62

====

# inhibition listing for each entry below
TARGET_SYSTEM: L-lactate dehydrogenase (Plasmodium falciparum (isolate CDC / Honduras)) (UniProt Q27743)
Sequence (Q27743 whole entry, looked up): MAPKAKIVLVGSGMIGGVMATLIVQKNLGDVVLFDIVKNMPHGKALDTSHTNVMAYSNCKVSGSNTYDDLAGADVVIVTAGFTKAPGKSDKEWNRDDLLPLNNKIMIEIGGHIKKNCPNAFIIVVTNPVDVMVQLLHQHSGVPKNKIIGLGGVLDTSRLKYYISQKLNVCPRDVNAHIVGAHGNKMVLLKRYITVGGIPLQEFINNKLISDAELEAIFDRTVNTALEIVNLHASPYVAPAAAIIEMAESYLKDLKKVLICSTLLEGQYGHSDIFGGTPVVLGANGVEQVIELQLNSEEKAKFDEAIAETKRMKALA
EXPERIMENT_SUMMARY: PfLDH activity inhibition – cell lysate, 3D7 strain, counter-screen for P. falciparum growth inhibition project (AID 2304);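 further: 0% = vehicle and 100% = reference inhibitor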
ASSAY_SETUP: P. falciparum 3D7 crude extract, LDH APAD/NBT absorbance; at 2 µM; hits give high values
Report the figure in % without appending any unit label.

>>> result_value("Cc1cc(-c2ccc(NC(=O)N3CCc4cc(Br)c(N5CCN(C)CC5)cc43)cc2)cc(C)n1")
-2

response.value for O=C(Cc1cn(-c2ccccc2)nc1-c1ccc(Cl)cc1)Nc1nccs1 (field: inhibition) = 1

response.value for c1cc(CNC2Cc3ccccc3C2)cc(-c2cnc(N3CCNCC3)nc2)c1 (field: inhibition) = -9

response.value for COc1cc(F)c2ncc(F)c([C@@H](O)CN3CCC(NCc4cc5c(cn4)OCCO5)CC3)c2c1 (field: inhibition) = -1

response.value for CC(C)(C)c1ccc(NC(=O)c2ccc(CN3CCCN(CC4CCCCC4)CC3)cc2)cc1 (field: inhibition) = -1

response.value for O=C(NCCCNc1nc2ccccc2[nH]1)c1cccc(OC(F)(F)F)c1 (field: inhibition) = -2

response.value for Cc1cc(NCCc2ccccc2)nc(/N=C(\N)Nc2cccc(F)c2)n1 (field: inhibition) = -2

response.value for Cc1ccccc1C1CCN(c2ccc(C(=O)Nc3ccccc3)cn2)CC1 (field: inhibition) = -2

response.value for O=C(NCCCCN1CCC(c2ccc3ccccc3c2O)CC1)c1ccc(-c2ccc(Cl)cc2)cc1 (field: inhibition) = -2

response.value for COc1ccc2nc(C)cc(NN=Cc3cccc([N+](=O)[O-])c3)c2c1 (field: inhibition) = 7
